// provenance: ChEMBL document CHEMBL1156912

# tgt: Vasopressin V2 receptor (Homo sapiens)
# Sequence (P30518 whole entry): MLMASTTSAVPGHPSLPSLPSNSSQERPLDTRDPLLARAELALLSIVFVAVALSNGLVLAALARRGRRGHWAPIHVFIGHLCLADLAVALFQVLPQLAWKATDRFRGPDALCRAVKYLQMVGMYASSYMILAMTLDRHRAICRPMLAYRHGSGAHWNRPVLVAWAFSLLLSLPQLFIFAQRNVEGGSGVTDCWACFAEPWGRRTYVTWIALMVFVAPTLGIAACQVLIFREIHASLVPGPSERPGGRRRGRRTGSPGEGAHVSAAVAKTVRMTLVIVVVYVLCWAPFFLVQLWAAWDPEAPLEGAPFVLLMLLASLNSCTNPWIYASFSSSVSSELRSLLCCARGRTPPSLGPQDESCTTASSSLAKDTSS
# assayOverview: Activity at human vasopressin V2 receptor expressed in CHO cells by cAMP dynamic 2 assay
compounds and their reported EC50
testReadout: EC50 (nM)

>>> df
                             chemicalsmiles  observedmeasurement
0  Cc1ccn(-c2ccc(C(=O)N3Cc4cccn4Cc4ccccc43)c(Cl)c2)n1                 39.9
1  COc1cc(OC2CCN(C(C)=O)CC2)ccc1C(=O)N1CCC(N2C(=O)OCc3ccccc32)CC1                37000
2  O=C(Nc1ccc(C(=O)N2CCCCc3ccccc32)cc1)c1ccccc1-c1ccccc1                  7.6
